Recorded inhibition at 0.001 µM for the following compounds
# Target: PDE V (cGMP-specific PDE) (Canis lupus familiaris, UniProt O77746)
# Construct: purified from canine tracheal smooth muscle; from tissue; host or cells: canine tracheal smooth muscle
# Experiment Summary: Inhibitory activity on PDE V derived from canine tracheal smooth muscle
# Format: biochemical
# Conditions Used: Compound conc.: 1 nM; substrate 1.0 μM [3H]cGMP; read-out: PDE V inhibitory activity, Inhibition rate (%)
Structures can show the parent of a compound that is named as a salt.
Please reply with the bare figure in % and do not write the unit itself.

Solved entries (count: 3):
{"Compound": "CCNc1ccc(CNc2ncnc3cc4c(cc23)[nH]c(=O)n4CC)cc1 [Compound 6, hydrochloride]", "Unit Symbol": "%", "inhibition at 0.001 µM": 37}
{"Compound": "CCn1c(=S)[nH]c2cc3c(NCc4ccccc4NCCO)ncnc3cc21 [Compound 30, hydrochloride]", "Unit Symbol": "%", "inhibition at 0.001 µM": 97}
{"Compound": "CCn1c(=S)[nH]c2cc3c(NCc4ccccc4N4CCOCC4)ncnc3cc21 [Compound 33, hydrochloride]", "Unit Symbol": "%", "inhibition at 0.001 µM": 98}

Dear colleague, I am looking for the recorded inhibition at 0.001 µM of the following compound: CCn1c(=S)[nH]c2cc3c(NCc4ccccc4NC)ncnc3cc21 [Compound 22, hydrochloride]
91

Next: CCNc1ccc(CNc2ncnc3cc4c(cc23)[nH]c(=S)n4CC)cc1 [Compound 27, hydrochloride]
97

Next: CCn1c(=S)[nH]c2cc3c(NCc4ccccc4N4CCC(CO)CC4)ncnc3cc21 [Compound 34, hydrochloride]
95

Next: CCn1c(=S)[nH]c2cc3c(NCc4ccccc4N4CCCCC4)ncnc3cc21 [Compound 35, hydrochloride]
95

Next: CCn1c(=S)[nH]c2cc3c(NCc4ccc(NCc5ccccc5)cc4)ncnc3cc21 [Compound 24, hydrochloride]
88

Next: CCn1c(=O)[nH]c2cc3c(NCc4ccc(NCc5ccccc5)cc4)ncnc3cc21 [Compound 3, hydrochloride]
62

---

# Tested on: rats
# Experiment Summary: Hypotensive effect in anesthetized rats (mean blood pressure)
# Type: in vivo, male Sprague-Dawley rat
# Conditions Used: rat, 10 mg/kg, i.d. N = 2; from value before administration (100%)
Counter-ions that a name gives are not always drawn.
Recorded Hypotensive activity, Maximum lowering rate (%) of mean blood pressure for the following molecules
Please reply with the bare figure in % and do not write the unit itself.

{"Molecule": "CCn1c(=S)[nH]c2cc3c(NCc4ccccc4N4CCN(C)CC4)ncnc3cc21 [Compound 36, hydrochloride]", "Unit Symbol": "%", "Readout Value": 17.6}

Dear colleague, I am looking for the recorded Hypotensive activity, Maximum lowering rate (%) of mean blood pressure of the following molecule: CCn1c(=S)[nH]c2cc3c(NCc4cccc(N5CCN(C)CC5)c4)ncnc3cc21 [Compound 40, hydrochloride]
16.1

Next: CCn1c(=O)[nH]c2cc3c(NCc4ccccc4N4CCSCC4)ncnc3cc21 [Compound 15, hydrochloride]
19.8

Next: CCn1c(=O)[nH]c2cc3c(NCc4ccc(NC)cc4)ncnc3cc21 [Compound 2, hydrochloride]
19.7

Hey, just so you know, these numbers are from patent US6127541A.
